Study the reported pKi values for Nitric oxide synthase, inducible (Mus musculus, UniProt P29477) given below; they originate from different publications.
// pKi: -log10(molar conc.)

Example cases with answers are listed next.
[
  {
    "compound": "Cc1cc(N)nc(C[C@@H]2CNC[C@@H]2OCCNCC(F)(F)c2cccc(Cl)c2)c1",
    "pKi": 4.11
  },
  {
    "compound": "CC1=CC2=NCC(C(=O)c3ccc4cc(C)ccc4c3)CN2C=C1.[O-][Cl+3]([O-])([O-])O (centres undefined)",
    "pKi": 4.64
  },
  {
    "compound": "CNCc1ccc(OCc2ccc3ccc(N)nc3c2)cc1",
    "pKi": 4.31
  },
  {
    "compound": "NC(=Nc1cccc(OCCOc2cccc(N=C(N)c3cccs3)c2)c1)c1cccs1",
    "pKi": 4.18
  },
  {
    "compound": "Cc1cc(N)nc(C[C@@H]2CNC[C@@H]2OCCNCC(F)(F)c2cccc(F)c2F)c1",
    "pKi": 3.89
  },
  {
    "compound": "CN(C)CCN[C@@H]1CNC[C@@H]1Cc1cccc(N)n1 (racemic)",
    "pKi": 3.71
  },
  {
    "compound": "Cc1cc(N)nc(C[C@H]2CNC[C@H]2NCCNCCc2ccc(F)cc2)c1 (racemic)",
    "pKi": 5.34
  },
  {
    "compound": "Cc1cc(N)nc(C[C@H]2CNC[C@H]2NCCOCCc2cccc(F)c2)c1 (racemic)",
    "pKi": 5.40
  },
  {
    "compound": "NC(=Nc1cccc(Cc2cccc(N=C(N)c3cccs3)c2)c1)c1cccs1",
    "pKi": 4.10
  },
  {
    "compound": "Cc1cc(N)nc(C[C@H]2CNC[C@H]2N(C)CCN(C)CCc2cccc(F)c2)c1 (racemic)",
    "pKi": 4.25
  }
]

Quickly give me recorded pKi for Cc1cc(N)nc(C[C@H]2CNC[C@H]2N(C)CCNCCc2cccc(F)c2)c1 (racemic) 4.42

Quickly give me recorded pKi for CNCc1ccc(-c2cc(F)cc(CCc3cc(C)cc(N)n3)c2)cc1 4.96

Quickly give me recorded pKi for CNc1cc(C)cc(CCc2cc(C#N)cc(CCc3cc(C)cc(N)n3)c2)n1 4.84

----------
Study the reported pKi values for UniProtKB P29477 given below; they originate from different publications.
# experimentalSystem: UniProtKB P29477
# Sequence (P29477 whole entry): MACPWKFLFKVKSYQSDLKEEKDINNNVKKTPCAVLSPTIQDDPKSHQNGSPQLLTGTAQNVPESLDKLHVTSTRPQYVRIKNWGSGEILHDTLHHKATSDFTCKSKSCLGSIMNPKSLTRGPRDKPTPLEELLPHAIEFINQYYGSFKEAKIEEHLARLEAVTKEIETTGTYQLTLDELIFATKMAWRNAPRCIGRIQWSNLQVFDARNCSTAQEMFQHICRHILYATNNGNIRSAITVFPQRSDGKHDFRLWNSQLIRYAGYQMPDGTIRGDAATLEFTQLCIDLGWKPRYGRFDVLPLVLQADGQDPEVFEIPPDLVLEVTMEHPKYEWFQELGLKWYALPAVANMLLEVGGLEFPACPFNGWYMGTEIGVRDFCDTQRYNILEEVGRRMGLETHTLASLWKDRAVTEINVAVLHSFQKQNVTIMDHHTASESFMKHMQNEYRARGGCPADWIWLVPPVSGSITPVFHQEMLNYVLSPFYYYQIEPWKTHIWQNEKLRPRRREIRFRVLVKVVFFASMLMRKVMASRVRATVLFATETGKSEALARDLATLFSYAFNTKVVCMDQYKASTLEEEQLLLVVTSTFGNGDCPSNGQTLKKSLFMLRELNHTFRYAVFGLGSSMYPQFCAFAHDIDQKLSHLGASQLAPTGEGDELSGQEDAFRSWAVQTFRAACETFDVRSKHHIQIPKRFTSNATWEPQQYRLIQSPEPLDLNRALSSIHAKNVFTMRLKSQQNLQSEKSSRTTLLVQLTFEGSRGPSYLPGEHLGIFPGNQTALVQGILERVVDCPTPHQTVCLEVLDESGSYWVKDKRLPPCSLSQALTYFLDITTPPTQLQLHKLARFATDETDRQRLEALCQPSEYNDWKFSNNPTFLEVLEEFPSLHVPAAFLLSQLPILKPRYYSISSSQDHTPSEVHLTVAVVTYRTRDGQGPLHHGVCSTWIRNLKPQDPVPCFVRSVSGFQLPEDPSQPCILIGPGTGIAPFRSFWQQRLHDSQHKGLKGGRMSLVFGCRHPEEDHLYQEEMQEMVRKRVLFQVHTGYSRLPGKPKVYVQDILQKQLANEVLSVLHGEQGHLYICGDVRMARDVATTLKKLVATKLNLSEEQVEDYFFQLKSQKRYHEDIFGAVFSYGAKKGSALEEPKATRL
// pKi: -log10(molar conc.)

Quickly give me recorded pKi for N=C(Nc1cccc(-c2cccc(NC(=N)c3cccs3)c2)c1)c1cccs1 4.18

Quickly give me recorded pKi for CNCc1cccc(-c2cncc(CCc3cc(C)cc(N)n3)c2)c1 5.52

Quickly give me recorded pKi for CNCCCc1cccc(CCc2cc(C)cc(N)n2)c1 5.44

Quickly give me recorded pKi for Cc1cc(N)nc(C[C@H]2CNC[C@H]2NCCNCc2ccc(Cl)cc2Cl)c1 (racemic) 5.11

Quickly give me recorded pKi for Nc1cccc(C[C@H]2CNC[C@H]2OCCNCCc2cccc(F)c2)n1 4.88

Quickly give me recorded pKi for CN(C)CCOc1cccc(OCc2ccc3ccc(N)nc3c2)c1 3.75

Quickly give me recorded pKi for Cc1cc(N)nc(C[C@@H]2CNC[C@@H]2OCCNCC(F)(F)c2ccccc2Cl)c1 4.04

Quickly give me recorded pKi for Cc1cc(N)nc(CCc2cccc(CCCN(C)C)c2)c1 5.46

Quickly give me recorded pKi for COc1ccc(-c2ccc(C(=O)C3CN=C4C=C(C)C=CN4C3)cc2)cc1.Cl (stereo not given) 4.82

Quickly give me recorded pKi for Cc1cc(N)nc(C[C@H]2CNC[C@H]2NCCNCc2ccc(F)cc2)c1 (racemic) 5.10
